# Target Or Test System: IRAK4 (Homo sapiens (Human), UniProt Q9NWZ3)
# Sequence (Q9NWZ3 whole entry): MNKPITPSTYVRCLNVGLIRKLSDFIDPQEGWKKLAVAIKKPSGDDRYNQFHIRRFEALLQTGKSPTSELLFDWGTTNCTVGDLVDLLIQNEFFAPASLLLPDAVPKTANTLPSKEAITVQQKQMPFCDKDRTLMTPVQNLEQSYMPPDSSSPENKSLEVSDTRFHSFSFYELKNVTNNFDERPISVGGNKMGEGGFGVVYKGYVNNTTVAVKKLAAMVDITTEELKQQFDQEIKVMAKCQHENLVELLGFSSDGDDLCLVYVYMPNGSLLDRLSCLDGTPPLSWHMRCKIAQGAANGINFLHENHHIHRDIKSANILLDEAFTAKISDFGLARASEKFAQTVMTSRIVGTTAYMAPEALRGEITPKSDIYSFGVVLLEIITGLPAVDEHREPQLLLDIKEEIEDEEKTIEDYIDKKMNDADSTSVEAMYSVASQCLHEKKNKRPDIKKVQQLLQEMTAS
# Test Method Notes: IRAK4 Degradation HiBiT Assay
# Run Conditions: Jurkat, read-out: Cellular IRAK4 HiBiT: Dmax, Table 5; multiple runs; HiBiT-tagged Jurkat cells, 4 hrs
Criterion: Dmax meeting or surpassing 90%. Met: fulfilled. Not met: not fulfilled.

Ask | Is it the case that CC(C)Nc1cc(-c2ccc3cc(C#N)cnn23)ncc1-c1nnc(N2CCN(C(=O)CNc3cccc4c3C(=O)N(C3CCC(=O)NC3=O)C4=O)CC2)s1 (stereo not drawn) has Dmax reaching or exceeding 90%?
Reply | not fulfilled

Ask | API: above_or_equal(metric=Dmax, cutoff=90%) for item CNc1cc(-c2ccc3cc(C#N)cnn23)ncc1-c1nnc(C23CCC(NC(=O)CCOCCC(=O)N[C@H](C(=O)N4C[C@H](O)C[C@H]4C(=O)NCc4ccc(-c5scnc5C)cc4)C(C)(C)C)(CC2)CC3)s1
Reply | fulfilled

Ask | Answer whether Dmax of CNc1cc(-c2ccc3cc(C#N)cnn23)ncc1-c1nnc([C@H]2CC[C@H](NC(=O)[C@H]3CC[C@H]3C(=O)N[C@H](C(=O)N3C[C@H](O)C[C@H]3C(=O)N[C@@H](C)c3ccc(-c4scnc4C)cc3)C(C)(C)C)CC2)s1 (racemic) is greater than or equal to 90%.
Reply | not fulfilled

Ask | Determine whether this molecule has Dmax no lower than 90%: CNc1cc(-c2ccc3cc(C#N)cnn23)ncc1-c1nnc([C@H]2CC[C@@H](NC(=O)CCC(=O)N[C@H](C(=O)N3C[C@H](O)C[C@H]3C(=O)N[C@@H](C)c3ccc(-c4scnc4C)cc3)C(C)(C)C)CC2)s1
Reply | fulfilled

Ask | I'd appreciate it if you could say whether CNc1cc(-c2ccc3cc(C#N)cnn23)ncc1-c1nnc([C@H]2CC[C@H](NC(=O)CCCCCCCNc3ccc4c(c3)C(=O)N(C3CCC(=O)NC3=O)C4=O)CC2)s1 (stereo partly drawn) has Dmax at least equal to 90%.
Reply | not fulfilled

Ask | Is it the case that CC(C)Nc1cc(-c2ccc3cc(C#N)cnn23)ncc1-c1nnc(N2CCN(CCCCc3cccc4c3CN(C3CCC(=O)NC3=O)C4=O)CC2)s1 (stereo not drawn) has Dmax reaching or exceeding 90%?
Reply | not fulfilled

Ask | Is Dmax for CNc1cc(-c2ccc3cc(C#N)cnn23)ncc1-c1nnc(N2CC3CCC(C2)N3C2CCN(C(=O)C[C@H](NC(=O)[C@@H]3C[C@@H](O)CN3C(=O)[C@@H](NC(=O)C3(F)CC3)C(C)(C)C)c3ccc(-c4scnc4C)cc3)CC2)s1 at or above 90%?
Reply | fulfilled

Ask | Reported Dmax reaches at least 90% for Cc1ncsc1-c1ccc(CNC(=O)[C@@H]2C[C@@H](O)CN2C(=O)[C@@H](NC(=O)C2(F)CC2)C(C)(C)C)c(OCC(=O)N2CCC(CN3CCN(c4nnc(-c5cnc(-c6ccc7cc(C#N)cnn67)cc5NC(C)C)s4)CC3)CC2)c1 ?
Reply | fulfilled

Ask | Check the entry CNc1cc(-c2ccc3cc(C#N)cnn23)ncc1-c1nnc(N2CC3CCC(C2)N3C(=O)C[C@H](NC(=O)[C@@H]2C[C@@H](O)CN2C(=O)[C@@H](NC(=O)C2(F)CC2)C(C)(C)C)c2ccc(-c3scnc3C)cc2)s1 : does Dmax equal or exceed 90%?
Reply | fulfilled

Ask | Could you please find out whether CNc1cc(-c2ccc3cc(C#N)cnn23)ncc1-c1nnc(C23CCC(NC(=O)CN4CCN(c5ccc6c(c5)C(=O)N(C5CCC(=O)NC5=O)C6=O)CC4)(CC2)CC3)s1 (stereo not drawn) has Dmax that meets 90% or exceeds it?
Reply | fulfilled

Ask | Decide: is the reported value of Dmax for CC(C)Nc1cc(-c2ccc3cc(C#N)cnn23)ncc1-c1nnc(N2CCN(C3CCN(C(=O)Cc4cccc5c4CN(C4CCC(=O)NC4=O)C5=O)CC3)CC2)s1 (stereo not drawn) equal to or greater than 90%?
Reply | fulfilled

Ask | Item CC(C)Nc1cc(-c2ccc3cc(C#N)cnn23)ncc1-c1nnc(N2CCN(CCCCc3ccc4c(c3)CN(C3CCC(=O)NC3=O)C4=O)CC2)s1 (stereo not drawn) with Dmax of 90% or above?
Reply | not fulfilled

Ask | Say whether CNc1cc(-c2ccc3cc(C#N)cnn23)ncc1-c1nnc([C@H]2CC[C@H](NC[C@@H]3CCN(c4ccc5c(c4)C(=O)N(C4CCC(=O)NC4=O)C5=O)C3)CC2)s1 (stereo partly drawn) shows Dmax of 90% or more.
Reply | not fulfilled

Ask | Does Dmax meet or surpass 90% for Cc1ncsc1-c1ccc(CNC(=O)[C@@H]2C[C@@H](O)CN2C(=O)[C@@H](NC(=O)C2(F)CC2)C(C)(C)C)c(OCCCCCC(=O)N2CCN(c3nnc(-c4cnc(-c5ccc6cc(C#N)cnn56)cc4NC(C)C)s3)CC2)c1 ?
Reply | fulfilled

Ask | Kindly determine if Dmax recorded for CNc1cc(-c2ccc3cc(C#N)cnn23)ncc1-c1nnc([C@H]2CC[C@H](N(C)C(=O)C[C@H](NC(=O)[C@@H]3C[C@@H](O)CN3C(=O)[C@@H](NC(=O)C3(F)CC3)C(C)(C)C)c3ccc(-c4scnc4C)cc3)CC2)s1 is above or exactly 90%.
Reply | fulfilled

Ask | Hi, just wondering whether CNc1cc(-c2ccc3cc(C#N)cnn23)ncc1-c1nnc([C@H]2CC[C@@H](NC(=O)CCOCCNc3cccc4c3C(=O)N(C3CCC(=O)NC3=O)C4=O)CC2)s1 (stereo partly drawn) shows Dmax of 90% or higher.
Reply | not fulfilled

Ask | Check this molecule for Dmax at or above 90%: CNc1cc(-c2ccc3cc(C#N)cnn23)ncc1-c1nnc(N2CCCC3(CN(C(=O)C[C@H](NC(=O)[C@@H]4C[C@@H](O)CN4C(=O)[C@@H](NC(=O)C4(F)CC4)C(C)(C)C)c4ccc(-c5scnc5C)cc4)C3)C2)s1
Reply | fulfilled

Ask | Check the entry CNc1cc(-c2ccc3cc(C#N)cnn23)ncc1-c1nnc(C23CCC(NC(=O)CCC(=O)N[C@H](C(=O)N4C[C@H](O)C[C@H]4C(=O)N[C@@H](C)c4ccc(-c5scnc5C)cc4)C(C)(C)C)(CC2)CC3)s1 : does Dmax equal or exceed 90%?
Reply | fulfilled
